# Test Method Notes: Mini-pig pharmacokinetics, single-dose crossover, plasma epinephrine by LC-MS/MS
# Type: in vivo, Yucatan mini-pigs
# Condition Info: male, Yucatan, 0.3 mg per animal, minipig, single-dose intramuscular (IM), read-out: geometric mean plasma concentration of epinephrine
Measurement Label: concentration at 5 min (ng/mL)
The reply should be a number in ng/mL, with the unit left off.

Please give measured concentration at 5 min of the following entry: CNC[C@H](O)c1ccc(O)c(O)c1 [epinephrine, Epinephrine]
0.046

====

# Test Method Notes: Rabbit pharmacokinetics, single-dose non-crossover, plasma epinephrine by LC-MS/MS
# Format: in vivo, New Zealand white rabbits
# Condition Info: male, New Zealand white, intramuscular, 0.03 mg per animal, single-dose IM
Measurement Label: concentration at 5 min (ng/mL)
The reply should be a number in ng/mL, with the unit left off.

Please give measured concentration at 5 min of the following entry: CNC[C@H](O)c1ccc(O)c(O)c1 [epinephrine, Epinephrine]
0.988

Origin of the recorded values: patent US11771663B2
